Source: patent US20240002542A1

# target-of-assay: T1, hGP130-his (Sino Biological, Catalog #10974) (human, UniProt P40189 23-619)
# T1 construct: Bought his-tagged cytokine receptor used as SPR analyte; also called human gp130 receptor subunit; IL6 receptor beta subunit; not shown: his tag
# T1 sequence: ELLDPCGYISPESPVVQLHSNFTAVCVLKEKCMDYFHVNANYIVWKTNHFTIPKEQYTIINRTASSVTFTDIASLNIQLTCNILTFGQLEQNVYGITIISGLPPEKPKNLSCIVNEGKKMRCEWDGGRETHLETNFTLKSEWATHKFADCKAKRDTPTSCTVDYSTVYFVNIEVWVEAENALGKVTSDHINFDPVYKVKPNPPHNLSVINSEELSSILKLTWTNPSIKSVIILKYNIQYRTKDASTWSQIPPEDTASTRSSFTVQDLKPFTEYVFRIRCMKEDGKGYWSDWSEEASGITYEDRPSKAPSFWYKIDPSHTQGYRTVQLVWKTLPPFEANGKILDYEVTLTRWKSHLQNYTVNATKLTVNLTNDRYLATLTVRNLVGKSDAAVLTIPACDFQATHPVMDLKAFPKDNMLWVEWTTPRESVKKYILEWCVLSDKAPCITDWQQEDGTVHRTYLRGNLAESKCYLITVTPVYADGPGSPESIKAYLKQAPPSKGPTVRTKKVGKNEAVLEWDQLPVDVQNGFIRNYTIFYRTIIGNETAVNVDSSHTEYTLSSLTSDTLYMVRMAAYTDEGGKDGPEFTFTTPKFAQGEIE
# assay-text: SPR Biacore T200; mono-Fc VHH on Protein A chip, hGP130-his analyte
readout-type: koff (s⁻¹)
Quick note: give the figure in s⁻¹, leave out the unit.

Answered examples (5):
Could you please provide reported koff for 16-DR593 (SEQ ID NO. 234), anti-hGP130 Mono-Fc VHH (Fc fusion, Mono-Fc VHH ligand captured on a Protein A chip; not shown: mono-Fc part) QVQLQESGGGSVQAGGSLRLSCAASGYPYSNGYMGWFRQAPGKEREGVATIYTGDGRTYYADSVKGRFTISRDNAKNTVDLQMSSLKPEDTAMYYCAARAAPLYSSGSPLTRARYNVWGQGTQVTVSS ? Thanks! 0.021

Could you please provide reported koff for 15-DR592 (SEQ ID NO. 233), anti-hGP130 Mono-Fc VHH (Fc fusion, Mono-Fc VHH ligand captured on a Protein A chip; not shown: mono-Fc part) QVQLQESGGGSVQAGGSLRLSCTAPGFTSNSCGMDWYRQAPGKEREFVSSISTDGTTGYADSVKGRFTISKDKAKDTVYLQMNSLKPEDTGMYSCKTKDGTIATMELCDFGYWGQGTQVTVSS ? Thanks! 0.0059

Could you please provide reported koff for 18-DR595 (SEQ ID NO. 236), anti-hGP130 Mono-Fc VHH (Fc fusion, Mono-Fc VHH ligand captured on a Protein A chip; not shown: mono-Fc part) QVQLQESGGGSVQAGGSLTLSCAASEYAYSTCNMGWYRQAPGKERELVSAFISDGSTYYADSVKGRFTITRDNAKNTVYLQMNSLKPEDTAIYYCSANCYRRLRNYWGQGTQVTVSS ? Thanks! 0.0073

Could you please provide reported koff for 17-DR594 (SEQ ID NO. 235), anti-hGP130 Mono-Fc VHH (Fc fusion, Mono-Fc VHH ligand captured on a Protein A chip; not shown: mono-Fc part) QVQLQESGGGSVQAGGSLRLSCVASASTYCTYDMHWYRQAPGKGREFVSAIDSDGTTRYADSVKGRFTISQGTAKNTVYLQMNSLQPEDTAMYYCKTVCVVGSRWSDYWGQGTQVTVSS ? Thanks! 0.0095

Could you please provide reported koff for 14-DR591 (SEQ ID NO. 232), anti-hGP130 Mono-Fc VHH (Fc fusion, Tested as Mono-Fc VHH ligand captured on a Protein A chip; not shown: mono-Fc part) QVQLQESGGGSVQAGGSLRLSCTASGAIASGYIDSRWCMAWFRQAPGKEREGVAAIWPGGGLTVYADSVKGRFTISRDHAKNTLYLQMNNLKPEDTAMYYCAAGSPRMCPSLEFGFDYWGQGTQVTVSS ? Thanks! 0.0019

Let us examine a further case.
Could you please provide reported koff for 19-DR596 (SEQ ID NO. 237), anti-hGP130 Mono-Fc VHH (Fc fusion, Mono-Fc VHH ligand captured on a Protein A chip; not shown: mono-Fc part) QVQLQESGGGLVQPGGSLRLSCTASGLTFDDSVMGWFRQAPGKGREAVSCISSSGANAFYADSVKGRFTISRDNAKNTLYLQMNSLKPEDTATYYCKRGHACAGYYPIPYDDYWGQGTQVTVSS ? Thanks! 0.0082
